FYI, the data here is from ChEMBL document CHEMBL3988442.

- TESTED_TARGET: Ubiquitin-activating enzyme e1, putative (Leishmania donovani (strain BPK282A1)) (UniProt E9BSI1)
- Sequence (E9BSI1 as listed by the source): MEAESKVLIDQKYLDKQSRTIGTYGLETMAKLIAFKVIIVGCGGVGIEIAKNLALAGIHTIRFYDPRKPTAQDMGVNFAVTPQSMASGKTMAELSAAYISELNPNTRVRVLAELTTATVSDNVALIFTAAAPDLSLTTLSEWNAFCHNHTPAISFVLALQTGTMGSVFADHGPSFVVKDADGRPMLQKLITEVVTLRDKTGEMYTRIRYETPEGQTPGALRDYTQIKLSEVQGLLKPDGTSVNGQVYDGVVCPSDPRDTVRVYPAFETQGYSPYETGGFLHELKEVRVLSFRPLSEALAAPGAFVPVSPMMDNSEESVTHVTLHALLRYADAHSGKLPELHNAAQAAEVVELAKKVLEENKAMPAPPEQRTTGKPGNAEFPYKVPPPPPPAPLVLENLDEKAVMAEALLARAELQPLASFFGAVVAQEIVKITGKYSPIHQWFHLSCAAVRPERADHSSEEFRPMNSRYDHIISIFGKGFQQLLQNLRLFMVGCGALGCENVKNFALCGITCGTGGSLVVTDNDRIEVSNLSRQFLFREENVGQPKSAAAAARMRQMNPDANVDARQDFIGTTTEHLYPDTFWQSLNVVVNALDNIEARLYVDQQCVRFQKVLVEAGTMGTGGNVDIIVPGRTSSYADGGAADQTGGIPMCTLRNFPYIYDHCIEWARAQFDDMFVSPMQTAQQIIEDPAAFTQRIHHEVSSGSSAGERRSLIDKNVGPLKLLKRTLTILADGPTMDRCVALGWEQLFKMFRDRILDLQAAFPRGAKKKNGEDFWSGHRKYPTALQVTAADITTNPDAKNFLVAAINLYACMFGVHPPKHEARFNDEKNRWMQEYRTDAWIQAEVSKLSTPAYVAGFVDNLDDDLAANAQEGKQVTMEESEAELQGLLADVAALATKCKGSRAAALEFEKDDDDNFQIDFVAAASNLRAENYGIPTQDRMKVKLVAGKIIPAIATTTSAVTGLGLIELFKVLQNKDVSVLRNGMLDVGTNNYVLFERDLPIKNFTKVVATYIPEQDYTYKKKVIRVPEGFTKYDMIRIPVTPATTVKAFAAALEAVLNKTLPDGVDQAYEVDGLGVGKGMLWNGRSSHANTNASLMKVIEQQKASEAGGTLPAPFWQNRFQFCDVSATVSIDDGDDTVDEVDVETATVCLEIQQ
- ASSAY_PROCEDURE: Leishmania donovani Ubiquitin Activating Enzyme (LdE1)
- Assay type: functional
- Design: scale not given: direction of the effect not stated beside the values
- CONDITION_PARAMETERS: 30 µM
Entries with a potency or affinity are not part of this list.
Could you please mark Criterion met for values of Percent Effect below 10% and Criterion not met for values at or above it?

| MOLECULE | CAT |
| --- | --- |
| CC(=O)N1CCC2(CCN(C(=O)c3ccc(Cl)c(C(F)(F)F)c3)CC2)C1 | Criterion met |
| Cc1cc(C)nc(N2Cc3cnn(Cc4ccc(F)cc4)c3C2)n1 | Criterion met |
| COCC(=O)N1CCC(c2nccnc2Oc2cccnc2C)CC1 | Criterion not met |
| Cc1cc(C)n(-c2ccc(CNCc3ccc(OC(C)C)cc3)cn2)n1 | Criterion not met |
| Cc1nn(-c2ccccc2)c2c1C(c1ccc(C(=O)O)cc1)CC(=O)N2 (stereo unspecified) | Criterion not met |
| Cc1ccc(C)c(C(C(=O)O)N2CCCN(Cc3ccccn3)CC2)c1 (stereo unspecified) | Criterion met |
| CC1CCCCN1C(=O)CN1CCN(c2ccc3nncn3n2)CC1 (stereo unspecified) | Criterion not met |
| Cc1cnc(C(=O)N2CCc3ncnc(C)c3CC2)cn1 | Criterion met |
| CC(C)NC(=O)Nc1ccc(CNCc2cccc(OC(F)F)c2)cc1 | Criterion not met |
| CN1CCN(C2CCN(CC(=O)NCC(F)(F)F)CC2)C1=O | Criterion not met |
| COc1cccc(C(=O)N2CCCCC2CNC(N)=O)c1 (stereo unspecified) | Criterion met |

###

- Species on record: Homo sapiens
- ASSAY_PROCEDURE: To identify inhibition of the IFN signalling (Jak-Stat) pathway via expression of an eGFP reporter gene under the control of an IFN-stimulated response element (ISRE) containing MxA promoter.
- Type: functional
- Set-up: scale not given: direction of the effect not stated beside the values
- CONDITION_PARAMETERS: 30 µM

| COMPOUND | Percent Effect (%) |
| --- | --- |
| Cc1ccc2c(c1)CCC21CCN(C(=O)CO)CC1 | 15.4 |
| Cc1nn2cccnc2c1C(=O)N1CCCC(n2ccnc2)C1 (stereo unspecified) | 2.09 |
| COc1ccc(C(C)NC(=O)Cn2ccc(=O)n(C)c2=O)cc1OC (stereo unspecified) | 17.1 |
| COc1c(CNCc2ccnc(N3CCCC3)c2)c(C)nn1C | 7.98 |
| CN1CCCC(Cc2cncc(C(=O)NCC3CC3)c2)C1 (stereo unspecified) | 7.04 |
| O=C(NCCNc1ccccn1)N1CCSCC1 | 5.29 |
| Cc1cccc(C(=O)N2C[C@@H](OCc3cccnc3)[C@H]3OCCC[C@@H]32)n1 | 5.3 |
| O=C(NCC1CC1)[C@H]1C[C@H]2OCC[C@H]2N(Cc2ccsc2)C1 | -7.12 |
| OC(COc1ccccc1)CN1CCc2c(ncn2C2CC2)C1 (stereo unspecified) | 15.6 |
| COc1cc(C(=O)NS(=O)(=O)c2cccc(C#N)c2)cc(Cl)c1OC | -7.05 |
| CCCC(Nc1c(C#N)c(=O)n(C)c(=O)n1C)c1ccc(F)cc1F (stereo unspecified) | 1.79 |
